Provide the reported tissue uptake at 1 h of each item.
experiment: Ex vivo biodistribution in mice bearing LNCaP tumor xenografts; parameters: species or system mouse (male NOD-scid IL2Rg^null (NSG)); conditions: mouse, thyroid, iv, 1 h post-injection, mean ± SD; read-out: Thyroid uptake
Answer format: numeric, %ID/g implied, no suffix.

// O=C(O)CCC[C@H](NC(=O)N[C@@H](CCCCNC(=O)[C@H](Cc1c2ccccc2cc2ccccc12)NC(=O)[C@H]1CC[C@H](CNC(=O)CNC(=O)[C@H](CCCCNC(=O)c2ccc(F)nc2)NC(=O)CN(CC(=O)O)CC(=O)O)CC1)C(=O)O)C(=O)O [^18F-KL01130] : tissue uptake at 1 h value = 0.38

// O=C(O)CC[C@H](NC(=O)N[C@@H](CCCCNC(=O)[C@H](Cc1c2ccccc2cc2ccccc12)NC(=O)[C@H]1CC[C@H](CNC(=O)[C@H](CCNC(=O)c2ccc(F)nc2)NC(=O)CCC(=O)N(CC(=O)O)CC(=O)O)CC1)C(=O)O)C(=O)O [^18F-KL01120] : tissue uptake at 1 h value = 4.53

// O=C(O)CCC[C@H](NC(=O)N[C@@H](CCCCNC(=O)[C@H](Cc1c2ccccc2cc2ccccc12)NC(=O)[C@H]1CC[C@H](CNC(=O)[C@H](CCCCNC(=O)c2ccc(F)nc2)NC(=O)CN(CC(=O)O)CC(=O)O)CC1)C(=O)O)C(=O)O [^18F-KL01040] : tissue uptake at 1 h value = 0.6
